Source of measurements: patent US20180271998A1

molecular target: T1, Recombinant, Human EphA2 with C-terminal hexahistidine appended (human, UniProt P29317 25-534); experiment: BLI (Octet Red96), EphA2-His on anti-His5 sensors, doxorubicin liposomes with inserted Fab-PEG-DSPE conjugate at 25 uM phospholipid, slope of association curve 3-20 s relative to Fab 11 liposomes
T1 construct: Captured on anti-His5 sensors; also called his-tagged recombinant, human EphA
T1 sequence (P29317 other isoform, or with tags, fused parts or gaps limits assumed): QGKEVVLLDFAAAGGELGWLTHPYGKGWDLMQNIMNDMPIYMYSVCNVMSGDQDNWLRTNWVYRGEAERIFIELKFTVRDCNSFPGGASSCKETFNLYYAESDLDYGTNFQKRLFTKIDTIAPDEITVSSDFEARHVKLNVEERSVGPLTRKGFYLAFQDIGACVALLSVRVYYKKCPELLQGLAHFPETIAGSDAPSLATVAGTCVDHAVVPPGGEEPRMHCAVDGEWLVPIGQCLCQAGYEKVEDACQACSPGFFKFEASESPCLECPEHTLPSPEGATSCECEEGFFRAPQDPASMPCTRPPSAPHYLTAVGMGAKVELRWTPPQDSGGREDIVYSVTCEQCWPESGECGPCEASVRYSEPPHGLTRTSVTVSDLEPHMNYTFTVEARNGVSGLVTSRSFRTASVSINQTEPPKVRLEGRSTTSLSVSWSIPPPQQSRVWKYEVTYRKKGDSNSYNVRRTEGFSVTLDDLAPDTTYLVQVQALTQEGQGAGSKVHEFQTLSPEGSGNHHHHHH
metric_name: Fab-liposome binding strength, % of control

Known Fab-liposome binding strength, % of control results, listed for orientation:
anti-EphA2 Fab 17 (IgG1 G44L, F174C, C233S heavy chain; lambda G100L, S176C, C214S light chain), Fab-PEG-DSPE conjugate (Fab, V domains shown, mal-PEG(2000)-DSPE linker conjugated to the C-terminal cysteine of the heavy chain (Cys in DKTHTCAA)) VH: QVQLVQSGGGLVQPGGSLRLSCAASGFTFSSYAMHWVRQAPGKLLEWVTVISPDGHNTYYADSVKGRFTISRDNSKNTLYLQMNSLRAEDTAVYYCARASVGATGPFDIWGQGTLVTVSS VL: SSELTQPPSVSVAPGQTVTITCQGDSLRSYYASWYQQKPGTAPKLLIYGENNRPSGVPDRFSGSSSGTSASLTITGAQAEDEADYYCNSRDSSGTHLTVFGLGTKLTVLG	102 % of control
anti-EphA2 Fab 12 (IgG1 G44C, C233S heavy chain; lambda G100C, C214S light chain), Fab-PEG-DSPE conjugate (Fab, V domains shown, mal-PEG(2000)-DSPE linker conjugated to the C-terminal cysteine of the heavy chain (Cys in DKTHTCAA)) VH: QVQLVQSGGGLVQPGGSLRLSCAASGFTFSSYAMHWVRQAPGKCLEWVTVISPDGHNTYYADSVKGRFTISRDNSKNTLYLQMNSLRAEDTAVYYCARASVGATGPFDIWGQGTLVTVSS VL: SSELTQPPSVSVAPGQTVTITCQGDSLRSYYASWYQQKPGTAPKLLIYGENNRPSGVPDRFSGSSSGTSASLTITGAQAEDEADYYCNSRDSSGTHLTVFGCGTKLTVLG	109 % of control
anti-EphA2 Fab 14 (IgG1 G44C, F174C, C233S heavy chain; lambda G100C, S176C, C214S light chain), Fab-PEG-DSPE conjugate (Fab, V domains shown, mal-PEG(2000)-DSPE linker conjugated to the C-terminal cysteine of the heavy chain (Cys in DKTHTCAA)) VH: QVQLVQSGGGLVQPGGSLRLSCAASGFTFSSYAMHWVRQAPGKCLEWVTVISPDGHNTYYADSVKGRFTISRDNSKNTLYLQMNSLRAEDTAVYYCARASVGATGPFDIWGQGTLVTVSS VL: SSELTQPPSVSVAPGQTVTITCQGDSLRSYYASWYQQKPGTAPKLLIYGENNRPSGVPDRFSGSSSGTSASLTITGAQAEDEADYYCNSRDSSGTHLTVFGCGTKLTVLG	120 % of control
anti-EphA2 Fab 16 (IgG1 H172F, F174C, C233S heavy chain; lambda T162L, S174V, S176C, C214S light chain), Fab-PEG-DSPE conjugate (Fab, V domains shown, mal-PEG(2000)-DSPE linker conjugated to the C-terminal cysteine of the heavy chain (Cys in DKTHTCAA)) VH: QVQLVQSGGGLVQPGGSLRLSCAASGFTFSSYAMHWVRQAPGKGLEWVTVISPDGHNTYYADSVKGRFTISRDNSKNTLYLQMNSLRAEDTAVYYCARASVGATGPFDIWGQGTLVTVSS VL: SSELTQPPSVSVAPGQTVTITCQGDSLRSYYASWYQQKPGTAPKLLIYGENNRPSGVPDRFSGSSSGTSASLTITGAQAEDEADYYCNSRDSSGTHLTVFGGGTKLTVLG	89.3 % of control

Turning to the following binder.
Could you share which Fab-liposome binding strength, % of control value was measured for anti-EphA2 Fab 18 (IgG1 G44L, H172E, F174C, C233S heavy chain; lambda G100L, T162D, S176C, C214S light chain), Fab-PEG-DSPE conjugate (Fab, V domains shown, mal-PEG(2000)-DSPE linker conjugated to the C-terminal cysteine of the heavy chain (Cys in DKTHTCAA)) VH: QVQLVQSGGGLVQPGGSLRLSCAASGFTFSSYAMHWVRQAPGKLLEWVTVISPDGHNTYYADSVKGRFTISRDNSKNTLYLQMNSLRAEDTAVYYCARASVGATGPFDIWGQGTLVTVSS VL: SSELTQPPSVSVAPGQTVTITCQGDSLRSYYASWYQQKPGTAPKLLIYGENNRPSGVPDRFSGSSSGTSASLTITGAQAEDEADYYCNSRDSSGTHLTVFGLGTKLTVLG ? 99.6 % of control
